All figures here come from a melting point compilation (Tetko et al.; mined from patent text by program, amines drawn as free bases though some values may be those of a salt).

measured_quantity: melting point

**Q:** Recorded melting point of OCC1(c2ccccc2)COc2ccccc2O1 (stereo not drawn) , please.
**A:** 114 to 116 °C

**Q:** Same again, this time with CC(CS)C(=O)NC(C(=O)O)C(C)C (stereo not drawn)
**A:** 150 to 157 °C

----------
measured_quantity: melting point

**Q:** Name the recorded melting point for C[C@H](Cc1ccc(-c2cc(F)cc(F)c2)cc1)c1ccccc1 .
**A:** 49.8 to 51.3 °C

**Q:** Also, O=C1NC(=O)C(c2ccccc2)=C1Nc1cccc(Cl)c1 please.
**A:** 188 °C

Field: next compound
**Q:** Need melting point, item COc1ccc(CN2C=CC=C3C2=Nc2cc(C)ccc2S(=O)(=O)N3C)cc1
**A:** 135 to 136 °C
